- study system: p101/p110γ protein (PI3Kγ) (Homo sapiens, UniProt P48736)
- Construct: HA
- Sequence (P48736 whole entry, species assumed): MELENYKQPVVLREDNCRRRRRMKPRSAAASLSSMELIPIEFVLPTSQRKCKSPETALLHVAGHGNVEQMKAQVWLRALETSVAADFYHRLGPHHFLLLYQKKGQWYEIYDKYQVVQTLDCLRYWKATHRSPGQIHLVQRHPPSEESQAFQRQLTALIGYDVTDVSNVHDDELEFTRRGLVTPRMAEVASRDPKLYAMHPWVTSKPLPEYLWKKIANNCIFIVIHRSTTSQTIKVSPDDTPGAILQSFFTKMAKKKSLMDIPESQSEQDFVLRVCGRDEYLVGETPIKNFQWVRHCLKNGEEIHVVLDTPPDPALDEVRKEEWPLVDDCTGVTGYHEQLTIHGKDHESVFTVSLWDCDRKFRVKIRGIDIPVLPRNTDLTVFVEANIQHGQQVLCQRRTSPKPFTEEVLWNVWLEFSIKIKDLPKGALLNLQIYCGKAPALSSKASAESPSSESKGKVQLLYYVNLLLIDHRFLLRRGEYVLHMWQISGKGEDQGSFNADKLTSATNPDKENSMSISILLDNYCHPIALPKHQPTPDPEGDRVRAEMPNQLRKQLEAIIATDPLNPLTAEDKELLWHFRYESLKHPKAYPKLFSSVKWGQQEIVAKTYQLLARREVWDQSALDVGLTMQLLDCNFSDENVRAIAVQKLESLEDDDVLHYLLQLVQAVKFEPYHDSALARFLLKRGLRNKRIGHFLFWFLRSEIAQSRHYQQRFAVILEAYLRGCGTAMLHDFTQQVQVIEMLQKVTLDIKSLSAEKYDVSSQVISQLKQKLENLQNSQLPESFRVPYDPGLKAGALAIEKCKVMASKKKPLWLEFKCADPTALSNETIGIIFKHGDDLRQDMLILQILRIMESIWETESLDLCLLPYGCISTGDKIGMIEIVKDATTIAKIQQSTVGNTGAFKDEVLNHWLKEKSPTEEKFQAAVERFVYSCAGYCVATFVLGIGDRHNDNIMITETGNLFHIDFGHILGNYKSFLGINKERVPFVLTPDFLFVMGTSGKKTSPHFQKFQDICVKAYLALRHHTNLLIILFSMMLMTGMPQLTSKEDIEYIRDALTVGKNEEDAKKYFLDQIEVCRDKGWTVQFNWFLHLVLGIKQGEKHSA
- Sequence (Q8WYR1 whole entry partner, species assumed): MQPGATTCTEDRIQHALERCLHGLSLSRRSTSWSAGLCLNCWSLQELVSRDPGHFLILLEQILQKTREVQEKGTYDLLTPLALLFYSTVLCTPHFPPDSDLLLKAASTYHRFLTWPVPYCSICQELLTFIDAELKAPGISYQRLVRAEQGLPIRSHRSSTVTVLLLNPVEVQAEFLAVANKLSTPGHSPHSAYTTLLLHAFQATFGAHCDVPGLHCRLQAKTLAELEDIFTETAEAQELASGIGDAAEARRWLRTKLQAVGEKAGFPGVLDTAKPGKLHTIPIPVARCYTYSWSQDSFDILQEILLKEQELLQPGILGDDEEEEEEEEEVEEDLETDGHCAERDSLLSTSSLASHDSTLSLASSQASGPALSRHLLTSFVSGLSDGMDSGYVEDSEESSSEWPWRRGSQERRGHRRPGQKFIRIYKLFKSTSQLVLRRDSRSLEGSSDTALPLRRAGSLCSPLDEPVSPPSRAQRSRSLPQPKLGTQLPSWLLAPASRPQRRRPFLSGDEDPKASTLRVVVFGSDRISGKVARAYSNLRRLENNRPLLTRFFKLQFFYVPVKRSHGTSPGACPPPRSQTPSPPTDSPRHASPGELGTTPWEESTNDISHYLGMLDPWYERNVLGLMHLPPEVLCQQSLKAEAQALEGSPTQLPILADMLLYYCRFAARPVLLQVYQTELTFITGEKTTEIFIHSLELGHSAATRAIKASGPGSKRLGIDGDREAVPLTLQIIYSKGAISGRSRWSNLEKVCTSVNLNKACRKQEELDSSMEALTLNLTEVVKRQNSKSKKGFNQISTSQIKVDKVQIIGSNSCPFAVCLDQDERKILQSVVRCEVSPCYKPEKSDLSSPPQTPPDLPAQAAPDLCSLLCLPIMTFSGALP
- protocol description: PI3Kγ in vitro kinase assay
- cond: purified recombinant p101/p110γ with G protein β1/γ2 subunits, 20 μM ATP, PIP2 lipid micelles
value kind: IC50 (µM)

(P) O=C(Nc1nnn[nH]1)c1cnc(N2CCOCC2)nc1NC1CCCC1 [Example 19]
(Q) O=C(Nc1nn[nH]n1)c1cnc(N2CCOCC2)nc1OC1C2CC3CC(C2)CC1C3 (stereo not shown) [Example 11]
(R) O=C(Nc1nn[nH]n1)c1cnc(N2CCOCC2)nc1OC1CCCCC1 [Example 4]
(S) Cc1nc(N2CCOCC2)nc(OC2CCCCCC2)c1C(=O)Nc1nn[nH]n1 [Example 22]
### Prompt Ascending sort, IC50. Put the labels in the requested order and write them down.
### Response Q, R, S, P

* * *

- study system: p101/p110γ protein (PI3Kγ) (Homo sapiens, UniProt P48736)
- Construct: HA
- protocol description: PI3Kγ in vitro kinase assay
- cond: purified recombinant p101/p110γ with G protein β1/γ2 subunits, 20 μM ATP, PIP2 lipid micelles
pIC50: −log10 of the molar value.
value kind: pIC50

Illustrative cases are given below, each with its answer.
INSERT INTO assay_data (molecule, study_system, value) VALUES
  ('O=C(Nc1nn[nH]n1)c1cnc(N2CCOCC2)nc1Oc1ccc(C2CCCCC2)cc1 [Example 18]', 'p101/p110γ protein (PI3Kγ) (Homo sapiens, UniProt P48736)', 6.81),
  ('CC(C)C(C)Oc1nc(N2CCOCC2)ncc1C(=O)Nc1nn[nH]n1 (stereo not drawn) [Example 14]', 'p101/p110γ protein (PI3Kγ) (Homo sapiens, UniProt P48736)', 5.94),
  ('CC(C)c1ccc(Oc2nc(N3CCOCC3)ncc2C(=O)Nc2nn[nH]n2)cc1 [Example 17]', 'p101/p110γ protein (PI3Kγ) (Homo sapiens, UniProt P48736)', 6.09),
  ('O=C(Nc1nnn[nH]1)c1cnc(N2CCOCC2)nc1NCc1ccccc1 [Example 20]', 'p101/p110γ protein (PI3Kγ) (Homo sapiens, UniProt P48736)', 4.41),
  ('O=C(Nc1nn[nH]n1)c1cnc(N2CCOCC2)nc1OC1CCCC1 [Example 2]', 'p101/p110γ protein (PI3Kγ) (Homo sapiens, UniProt P48736)', 5.81),
  ('CC1(COc2nc(N3CCOCC3)ncc2C(=O)Nc2nn[nH]n2)CC1 [Example 15]', 'p101/p110γ protein (PI3Kγ) (Homo sapiens, UniProt P48736)', 5.77);

(A) O=C(Nc1nn[nH]n1)c1cnc(N2CCOCC2)nc1OC1CCOCC1 [Example 10]
(B) O=C(Nc1nn[nH]n1)c1cnc(N2CCOCC2)nc1OC1CCCCCC1 [Example 1]
### Prompt Param metric = pIC50; output whichever of A , B has the minimum value. # answer = label of selected item
### Response A

* * *

- study system: p101/p110γ protein (PI3Kγ) (Homo sapiens, UniProt P48736)
- Construct: HA
- protocol description: PI3Kγ in vitro kinase assay
- cond: purified recombinant p101/p110γ with G protein β1/γ2 subunits, 20 μM ATP, PIP2 lipid micelles
pIC50: −log10 of the molar value.
value kind: pIC50

// solved cases for pIC50 follow
INSERT INTO results (molecule, value) VALUES
  ('CC1(C)CCCC(Oc2nc(N3CCOCC3)ncc2C(=O)Nc2nn[nH]n2)C1 (stereo not drawn) [Example 9]', 5.87),
  ('O=C(Nc1nn[nH]n1)c1cnc(N2CCOCC2)nc1OC1CCCCCCC1 [Example 5]', 6.30),
  ('CC(C)(C)COc1nc(N2CCOCC2)ncc1C(=O)Nc1nn[nH]n1 [Example 13]', 5.69);

(P) O=C(Nc1nn[nH]n1)c1cnc(N2CCOCC2)nc1OCC1CCCCC1 [Example 7]
(Q) CC1CC(C)CC(Oc2nc(N3CCOCC3)ncc2C(=O)Nc2nn[nH]n2)C1 (stereo not drawn) [Example 16]
(R) CC(C)Oc1nc(N2CCOCC2)ncc1C(=O)Nc1nn[nH]n1 [Example 3]
(S) O=C(Nc1nn[nH]n1)c1cnc(N2CCOCC2)nc1OCCC1CCCCC1 [Example 6]
(T) O=C(Nc1nn[nH]n1)c1cnc(N2CCOCC2)nc1OC1CC2CCC1C2 (stereo not drawn) [Example 12]
### Prompt Write the entries in order, lowest recorded pIC50 first. Record the ranking as a list of labels in the requested order.
### Response R, S, P, T, Q
(R: 4.06, S: 5.00, P: 5.74, T: 6.07, Q: 6.68)

Origin of values: patent US20090227587A1
